- Tested on: SCC15/R1 cells
- TEST DESCRIPTION: Growth inhibition of MTX-resistant human squamous carcinoma cells SCC15/R1
- Type: cell-based
- CONDITION NOTES: SCC-15, 336 h, continuous exposure about two weeks
OBSERVABLE: IC50
Returns: string containing the numeric result and its unit.

Prompt: Return IC50 for the following compound: Nc1nc(N)c2nc(CNc3ccc(C(=O)N[C@@H](CCCNC(=O)c4ccccc4C(=O)O)C(=O)O)cc3)cnc2n1
Completion: 4 nM

---

- System: L 1210 murine leukemia cells
- TEST DESCRIPTION: Cytotoxicity assay against L 1210 murine leukemia cells, 48 hours
- Assay type: cell-based
- CONDITION NOTES: Mus musculus, L1210, 48 h, read-out: L1210 cell growth inhibition IC50
OBSERVABLE: IC50 (nM)
Answers are plain numbers, in nM.

NCCC[C@H](NC(=O)c1ccc(NCc2cnc3nc(N)nc(N)c3n2)cc1)C(=O)O 1300

# next compound below
Prompt: Recall and state the measured IC50 for Nc1nc(N)c2nc(CNc3ccc(C(=O)N[C@@H](CCCNC(=O)c4ccccc4C(=O)O)C(=O)O)cc3)cnc2n1 .
Completion: 0.75

Data credit: patent US4767761A
